Tgt: T1, His-tagged soluble human LAG-3 (shLAG-3-His) (human, UniProt P18627 23-450)
T1 construct: also called soluble human LAG-3-His fusion protein; extracellular domain of human LAG-3 fused to a His tag; not shown: His tag
T1 sequence: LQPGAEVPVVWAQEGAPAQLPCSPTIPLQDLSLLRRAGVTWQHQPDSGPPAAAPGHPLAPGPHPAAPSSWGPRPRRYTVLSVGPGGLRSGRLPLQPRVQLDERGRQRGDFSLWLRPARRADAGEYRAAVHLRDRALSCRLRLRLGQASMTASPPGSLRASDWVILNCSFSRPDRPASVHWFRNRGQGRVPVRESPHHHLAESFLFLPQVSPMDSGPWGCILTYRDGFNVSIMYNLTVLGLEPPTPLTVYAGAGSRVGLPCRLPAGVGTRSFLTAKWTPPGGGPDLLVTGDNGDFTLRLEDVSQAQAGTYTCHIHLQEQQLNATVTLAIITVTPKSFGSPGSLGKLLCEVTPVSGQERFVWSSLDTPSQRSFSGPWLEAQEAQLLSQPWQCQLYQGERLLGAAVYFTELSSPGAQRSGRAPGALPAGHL
Assay protocol: SPR (Biacore); antibody captured on immobilized Fab2 goat-anti-mouse Fc, shLAG-3-His in solution
Readout name: Kd (nM)
A number alone suffices; assume nM.

Challenge: Reported Kd for LAG-3 mAb 4 (antibody, V domains shown, Murine monoclonal antibody) VH: EVQLHQSGPELVKPGASVKISCKTSGYTFTDYNIHWVKQSHGKSLEWIGYIYPYNGDAGYNQNFKTKATLTVDNSSSTAYMELRSLTSEDSAVYYCARWNMNYFGPWFAYWGQGTLVTVSA VL: DIVLTQSPASLAVSLGQRATISCKASQSVDYDGVTYINWYQQKPGQPPKLLIFAASNLESGIPARFSGSGSGTDFTLNIHPVEEEDAATYYCQQSNEDPLTFGAGTKLELK : what is it?
Response given: 0.8

Challenge: Reported Kd for LAG-3 mAb 2 (antibody, V domains shown, Murine monoclonal antibody) VH: EVQLQQSGPELVKPGASVKISCKTSGYTFTDYNIHWLRQSHGESLEWIGYIYPYSGDIGYNQKFKNRATLTVDNSSSTAYMDLRSLTSEDSAVFYCARWHRNYFGPWFAYWGQGTPVTVSA VL: DIVLTQSPASLAVSLGQRATISCKASQSVDYDGESYMNWYQQKPGQPPKLLIYVVSNLESGIPARFSGSGSGTDFTLNIHPVEEEDAATYYCQQSSEDPLTFGAGTKLELK : what is it?
Response given: 1.9

Challenge: Reported Kd for LAG-3 mAb 6 (antibody, V domains shown, Murine monoclonal antibody) VH: EVLLQQSGPELVKPGASVKIPCKASGYTFTDYNMDWVKQSHGESLEWIGDINPDNGVTIYNQKFEGKATLTVDKSSSTAYMELRSLTSEDTAVYYCAREADYFYFDYWGQGTTLTVSS VL: DIVMTQSHRFMSTSVGDRVSITCKASQDVSSVVAWYQQKPGQSPKLLIFSASYRYTGVPDRFTGSGSGTDFTFTISSVQAADLAVYYCQQHYSTPWTFGGGTKLEIK : what is it?
Response given: 0.02

Challenge: Reported Kd for LAG-3 mAb 5 (antibody, V domains shown, Murine monoclonal antibody) VH: EVQLQQSGPELVKPGASVKISCKASGYTFTDYNIHWVKQSPGKSLEWIGYIYPYSGDFGYNQKFKSKATLTVDNSSSTAYMDLRSLTSEDSAVFYCARWHRNYFGPWFAYWGQGTLVTVSA VL: DIVLTQSPASLAVSLGQRATISCKASQSVDYDGESYMNWYQQKPGQPPKLLIYVVSNLESGIPARFSGSGSGTDFTLNIHPVEEEDAATYYCQQSSEDPLTFGAGTKLELK : what is it?
Response given: 0.9

Challenge: Reported Kd for LAG-3 mAb 3 (antibody, V domains shown, Murine monoclonal antibody) VH: EVRLQQSGPELVKPGASVKISCKASGYTFTDYNIHWVRQSHGQSLEWIGYIYPYNGDTGYNQKFKTKATLTVDNSSNTAYMELRSLASEDSAVYYCTRWSRNYFGPWFAYWGQGTLVTVSA VL: DIVLTQSPTSLAVSLGQRATISCKASQSVDYDGDSYMNWYQQKPGQPPKLLIYAASNLESGIPARFSGSGSGTDFTLNIHPVEEEDAATYYCQQSSEDPLTFGAGTKLELK : what is it?
Response given: 4.4
